Where these numbers come from: patent US20130266517A1

Target: alpha-synuclein (natural human wildtype alpha-synuclein) (human, UniProt P37840 1-140)
Assay: BLI, ForteBio Octet QK; apparent ka
Each record is given yes (1) if its reported kon is strictly below 600000 M⁻¹ s⁻¹. Records at or above 600000 M⁻¹ s⁻¹ are given no (0).

// below: answered binders
>>> assigned_class("Humanized 1H7 H4L4 (Hu1H7VHv4-Hu1H7VLv4) (antibody, V domains shown) VH: QVQLVQSGAEVKKPGASVKVSCKASGYSFTSYYIHWVRQAPGQGLEWIGWIYPGSGNTKYSEKFKGRATLTADTSTSTAYMELRSLRSDDTAVYFCARDGSYGFAYWGQGTLVTVSS VL: DIQLTQSPSSLSASVGDRVTITCKASQSVDYDGDSYMNWYQQKPGKAPKFLIYAASNLESGVPSRFSGSGSGTDFTLTISSLQPEDFATYYCQQSNEDPFTFGQGTKLEIK")
"yes (1)"
>>> assigned_class("Humanized 1H7 H2L2 (Hu1H7VHv2-Hu1H7VLv2) (antibody, V domains shown) VH: QVQLVQSGAEVKKPGASVKVSCKASGYSFTSYYIHWVRQAPGQGLEWIGWIYPGSGNTKYSEKFKGRATLTADTSTSTAYMELRSLRSDDTAVYFCARDGCYGFAYWGQGTLVTVSS VL: DIQLTQSPSSLSASVGDRVTITCKASQSVDYDGDSYMNWYQQKPGKAPKFLIYAASNLESGVPSRFSGSGSGTDFTLTISSLQPEDAATYYCQQSNEDPFTFGQGTKLEIK")
"no (0)"
>>> assigned_class("Humanized 1H7 H2L1 (Hu1H7VHv2-Hu1H7VLv1) (antibody, V domains shown) VH: QVQLVQSGAEVKKPGASVKVSCKASGYSFTSYYIHWVRQAPGQGLEWIGWIYPGSGNTKYSEKFKGRATLTADTSTSTAYMELRSLRSDDTAVYFCARDGCYGFAYWGQGTLVTVSS VL: DIQLTQSPSSLSASVGDRVTITCKASQSVDYDGDSYMNWYQQKPGKAPKFLICAASNLESGVPSRFSGSGSGTDFTLTISSLQPEDAATYYCQQSNEDPFTFGQGTKLEIK")
"yes (1)"
>>> assigned_class("Humanized 1H7 H1L4 (Hu1H7VHv1-Hu1H7VLv4) (antibody, V domains shown) VH: QVQLVQSGAELKKPGASVKVSCKASGYSFTSYYIHWVKQAPGQGLEWIGWIYPGSGNTKYSEKFKGRATLTADTSTSTAYMELRSLRSDDTAVYFCARDGCYGFAYWGQGTLVTVSS VL: DIQLTQSPSSLSASVGDRVTITCKASQSVDYDGDSYMNWYQQKPGKAPKFLIYAASNLESGVPSRFSGSGSGTDFTLTISSLQPEDFATYYCQQSNEDPFTFGQGTKLEIK")
"no (0)"
>>> assigned_class("Humanized 1H7 H1L3 (Hu1H7VHv1-Hu1H7VLv3) (antibody, V domains shown) VH: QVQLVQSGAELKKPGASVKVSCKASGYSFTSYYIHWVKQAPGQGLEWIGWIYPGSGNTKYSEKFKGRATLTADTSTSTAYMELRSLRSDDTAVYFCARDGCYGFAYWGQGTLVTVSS VL: DIQLTQSPSSLSASVGDRVTITCKASQSVDYDGDSYMNWYQQKPGKAPKFLICAASNLESGVPSRFSGSGSGTDFTLTISSLQPEDFATYYCQQSNEDPFTFGQGTKLEIK")
"yes (1)"

**Q:** Does Humanized 1H7 H4L2 (Hu1H7VHv4-Hu1H7VLv2) (antibody, V domains shown) VH: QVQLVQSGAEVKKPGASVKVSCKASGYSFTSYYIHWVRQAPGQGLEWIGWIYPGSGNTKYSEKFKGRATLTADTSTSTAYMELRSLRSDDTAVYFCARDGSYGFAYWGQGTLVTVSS VL: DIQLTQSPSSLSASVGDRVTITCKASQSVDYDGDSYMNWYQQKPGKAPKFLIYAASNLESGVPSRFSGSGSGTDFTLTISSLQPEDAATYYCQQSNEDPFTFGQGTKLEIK have kon strictly under 600000 M⁻¹ s⁻¹?
**A:** no (0)

**Q:** Does Humanized 1H7 H4L3 (Hu1H7VHv4-Hu1H7VLv3) (antibody, V domains shown) VH: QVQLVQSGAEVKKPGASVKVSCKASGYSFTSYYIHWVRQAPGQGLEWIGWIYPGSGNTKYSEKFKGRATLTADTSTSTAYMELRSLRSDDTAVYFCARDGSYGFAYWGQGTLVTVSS VL: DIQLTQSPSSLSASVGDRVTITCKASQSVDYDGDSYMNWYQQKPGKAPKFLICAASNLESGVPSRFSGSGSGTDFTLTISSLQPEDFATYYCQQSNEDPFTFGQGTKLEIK have kon strictly under 600000 M⁻¹ s⁻¹?
**A:** no (0)
